Attribution: paper PMC9838217

Target Entity: SALL4 ZFC4 R900W (HT-SELEX) (Mus musculus, UniProt Q8BX22 870-940, R900W)
Sequence: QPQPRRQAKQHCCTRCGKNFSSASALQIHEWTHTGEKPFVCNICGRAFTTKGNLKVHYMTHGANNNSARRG
Assay Notes: HT-SELEX; high values mean tight binding
Test Conditions: protein: recombinant; vector His6-GST; dsDNA, one strand shown
Is binding signal at least 0.8 fold-change vs cycle 0? Then MET. If not, NOT MET.

Reference set, count: 5
ATTAGC = MET
TGCCAA = NOT MET
TACCAA = MET
GAGTCA = MET
AAGGGT = MET

stdin: Would you say CCCGCA shows binding signal at minimum 0.8 fold-change vs cycle 0?
stdout: NOT MET

stdin: Likewise for GGTAGA ?
stdout: MET

stdin: Likewise for CAAACA ?
stdout: MET

stdin: Likewise for AAGCCC ?
stdout: NOT MET

stdin: Likewise for ACATCT ?
stdout: MET

stdin: Likewise for TCAGGA ?
stdout: MET

stdin: Likewise for TAGGAA ?
stdout: MET

stdin: Likewise for ATACAT ?
stdout: MET

stdin: Likewise for CCTAGC ?
stdout: NOT MET

stdin: Likewise for AGAGAG ?
stdout: MET

stdin: Likewise for ATTTCA ?
stdout: MET

stdin: Likewise for GAATTA ?
stdout: MET

stdin: Likewise for CTCGAA ?
stdout: NOT MET

stdin: Likewise for CCGTCA ?
stdout: NOT MET

stdin: Likewise for ACTGTA ?
stdout: MET

stdin: Likewise for ACCGAG ?
stdout: NOT MET

stdin: Likewise for AGATAA ?
stdout: MET

stdin: Likewise for CAAGGG ?
stdout: NOT MET

stdin: Likewise for AAATGT ?
stdout: MET

stdin: Likewise for AGCGCG ?
stdout: NOT MET

stdin: Likewise for AAGTGT ?
stdout: MET

stdin: Likewise for TCCCGA ?
stdout: NOT MET

* * *

Target Entity: SALL4 ZFC4 R900W (HT-SELEX) (Mus musculus, UniProt Q8BX22 870-940, R900W)
Sequence: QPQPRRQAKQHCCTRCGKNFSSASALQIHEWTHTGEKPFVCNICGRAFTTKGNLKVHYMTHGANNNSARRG
Assay Notes: HT-SELEX; high values mean tight binding
Test Conditions: protein: recombinant; vector His6-GST; dsDNA, one strand shown
Quantity Measured: binding signal (fold-change vs cycle 0)
Your answer is read as fold-change vs cycle 0, so omit the unit and give the number.

CTCCCC = 0.36
AGATAC = 1.44
CGTGAA = 0.776
CTAGAG = 1
ACCGTA = 0.818
ATGGGC = 0.31

stdin: Using the record for AAGGCC , report its binding signal.
stdout: 0.32

* * *

Target Entity: SALL4 ZFC4 WT (HT-SELEX) (Mus musculus, UniProt Q8BX22 870-940)
Sequence: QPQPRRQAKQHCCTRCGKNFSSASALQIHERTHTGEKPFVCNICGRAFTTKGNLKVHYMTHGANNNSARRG
Assay Notes: HT-SELEX; high values mean tight binding
Test Conditions: protein: recombinant; vector His6-GST; dsDNA, one strand shown
Quantity Measured: binding signal (fold-change vs cycle 0)
Your answer is read as fold-change vs cycle 0, so omit the unit and give the number.

Look over these answered cases.
ACTAGG = 0.871
CAACTC = 0.778
TATAGA = 2.35
ACCAGA = 0.795
CCGGTA = 0.345
AGAGAT = 1.51
ACGTCT = 0.744
AACCTT = 1.35
ATCCAG = 0.851
AGTGTC = 0.664

Turning now to a further sequence:
stdin: Using the record for AACCCG , report its binding signal.
stdout: 0.371
